Reference for the values: PubChem BioAssay AID1259418

- EXPERIMENT_SUMMARY: inhibitors of Toxoplasma growth in IFN-γ-primed HeLa – cell-based, ME49Luc, luciferase, 72 h, dose response (AID 1259418)
- CONDITIONS: T. gondii ME49Luc in IFN-y HeLa, stronger effect = lower value, -100% = high-dose IFN-γ control wells; at 19.5 µM unless noted
Out of some 3,400 compounds screened, about 840 (25%) were called active. Roughly 11% stayed inconclusive and do not appear here. These entries were drawn from the full list. Results with a measured potency or affinity are listed apart.
ASSAY_ENDPOINT: max activity

These recorded examples may help you get a feel for the data.
{"COMPOUND": "CCCc1cc(C2CCCN2C(=O)c2cc(C(F)(F)F)nn2C)no1 (stereo unspecified)", "TEST_RESULT": "13.3% [at 0.16 µM] (inactive)"}
{"COMPOUND": "COc1ccc(C2=NC3(CCN(CC(=O)Nc4ccccc4F)CC3)NC2=O)cc1", "TEST_RESULT": "-25.6% [at 0.35 µM] (inactive)"}
{"COMPOUND": "CN1C(=O)CCc2cc(NC(=O)c3ccsc3)ccc21", "TEST_RESULT": "74.1% [at 10 µM] (inactive)"}
{"COMPOUND": "COc1ccccc1N(Cc1nc(-c2cccc(OC)c2OC)oc1C)S(=O)(=O)c1ccccc1", "TEST_RESULT": "3.95% (inactive)"}
{"COMPOUND": "CCOC(=O)C1CCC(CNC(=O)Nc2ccc(-c3nc(-c4ccc(C)cc4C)co3)cc2)CC1 (stereo unspecified)", "TEST_RESULT": "-7.93% [at 0.35 µM] (inactive)"}
{"COMPOUND": "CN1C(=O)c2cc(NC(=O)Cc3cccs3)ccc2OC[C@H]2O[C@@H](CC(=O)NCc3ccc(-c4ccccc4)cc3)CC[C@@H]21", "TEST_RESULT": "-7.79% [at 1.2 µM] (inactive)"}

Any idea what its max activity is? The compound is Cc1ccc(C(=O)N2CCC3(CC2)Nc2ccc(Cl)cc2-n2cccc23)cc1 8.29% [at 0.35 µM] (inactive)

Any idea what its max activity is? The compound is COc1ccc(-c2nc(N3CCC(c4ccccc4)C3)c3ccccc3n2)cc1 (stereo unspecified) -14.1% [at 2.6 µM] (inactive)

Any idea what its max activity is? The compound is COc1ccccc1-c1nc(Cn2nnc(-c3nc(-c4ccccc4C)no3)c2C)c(C)o1 11.1% [at 0.16 µM] (inactive)

Any idea what its max activity is? The compound is Cc1ccccc1S(=O)(=O)N1CCCCN2[C@H](CO)[C@H](c3ccc(C#CCN(C)C)cc3)[C@@H]2C1 -17.9% (inactive)

Any idea what its max activity is? The compound is CC(C)C(=O)N1CCC2(CC1)Nc1ccc(Cl)cc1-n1cccc12 15.6% [at 0.68 µM] (inactive)

---

Catalogue of max activity values
- EXPERIMENT_SUMMARY: inhibitors of Toxoplasma growth in IFN-γ-primed HeLa – cell-based, ME49Luc, luciferase, 72 h, dose response (AID 1259418)
- CONDITIONS: T. gondii ME49Luc in IFN-y HeLa, stronger effect = lower value, -100% = high-dose IFN-γ control wells; at 19.5 µM unless noted
Among all 3,400 compounds or so, about 840 (25%) were called active. Not shown: some 11% with an inconclusive outcome. Not all results are given here. Results with a measured potency or affinity are listed apart.

These recorded examples may help you get a feel for the data.
{"COMPOUND": "Cc1ccc(-c2nc3c(s2)CN(C(=O)Nc2ccccc2C(F)(F)F)CC3)cc1", "max activity": "101% [at 10 µM] (inactive)"}
{"COMPOUND": "CCCCNC(=O)CCC1N=C2c3ccccc3N=C(SCc3cc(=O)n4ccccc4n3)N2C1=O (centres undefined)", "max activity": "21.9% [at 0.68 µM] (inactive)"}
{"COMPOUND": "CCCCNC(=O)CCC1N=C2c3ccccc3N=C(SCc3ccccc3F)N2C1=O (centres undefined)", "max activity": "-6.88% [at 2.6 µM] (inactive)"}

Please turn your attention to the following entry.
Any idea what its max activity is? The compound is CCCCNC(=O)CCC1N=C2c3ccccc3N=C(SCC#N)N2C1=O (centres undefined) 51.3% (inactive)

---

Catalogue of max activity values
- EXPERIMENT_SUMMARY: inhibitors of Toxoplasma growth in IFN-γ-primed HeLa – cell-based, ME49Luc, luciferase, 72 h, dose response (AID 1259418)
- CONDITIONS: T. gondii ME49Luc in IFN-y HeLa, stronger effect = lower value, -100% = high-dose IFN-γ control wells; at 19.5 µM unless noted
About 840 (25%) of roughly 3,400 compounds were called active. About 11% were inconclusive and are not listed. The list is a sample of the results. Measured potencies and affinities stand elsewhere.

These recorded examples may help you get a feel for the data.
{"MOLECULE": "CCc1ccc(N2CCC(C(=O)NCCc3c[nH]c4ccc(Cl)cc34)C2=O)cc1 (stereo not drawn)", "max activity": "-15.5% [at 0.16 µM] (inactive)"}
{"MOLECULE": "COc1ccc(-c2nc(Nc3ccc(C)c(F)c3)c3ccccc3n2)cc1", "max activity": "17.7% [at 2.6 µM] (inactive)"}
{"MOLECULE": "COc1ccc(-c2nc(Cn3nnc(-c4nc(-c5ccccc5)no4)c3C)c(C)o2)cc1", "max activity": "11% [at 0.16 µM] (inactive)"}
{"MOLECULE": "COc1cc(OC)c(NC(=O)COc2nc(C)nc3ccccc23)cc1Cl", "max activity": "39.9% (inactive)"}
{"MOLECULE": "CCOc1ccc(-c2nc(CN(c3ccccc3OC)S(=O)(=O)c3ccc(C)cc3)c(C)o2)cc1", "max activity": "17.2% [at 0.68 µM] (inactive)"}
{"MOLECULE": "Cc1ccc(C)c(-c2coc(-c3ccc(NC(=O)Nc4cc(F)ccc4F)cc3)n2)c1", "max activity": "18.4% [at 0.16 µM] (inactive)"}
{"MOLECULE": "O=C(NCCc1csc(-c2ccccc2)n1)[C@H]1CCCN1C(=O)c1ccc(F)c(F)c1", "max activity": "13.1% [at 0.16 µM] (inactive)"}
{"MOLECULE": "O=C(CC1N=C2c3ccccc3N=C(SCc3ccccc3Cl)N2C1=O)NC1CCCCC1 (stereo not drawn)", "max activity": "14% (inactive)"}
{"MOLECULE": "O=C(CC1CC1)N[C@H]1CN(C(=O)c2ccoc2)C[C@@H]2CCCO[C@H]21", "max activity": "19.7% (inactive)"}
{"MOLECULE": "O=C(CC1N=C2c3ccccc3N=C(SCc3ccc(Cl)cc3)N2C1=O)NC1CCCCC1 (stereo not drawn)", "max activity": "-16.8% [at 0.35 µM] (inactive)"}

Please turn your attention to the following entry.
Any idea what its max activity is? The molecule is Cc1oc(-c2ccccc2)nc1Cn1nnc(-c2nc(-c3ccccc3Br)no2)c1C -8.57% [at 0.35 µM] (inactive)

---

Catalogue of max activity values
- EXPERIMENT_SUMMARY: inhibitors of Toxoplasma growth in IFN-γ-primed HeLa – cell-based, ME49Luc, luciferase, 72 h, dose response (AID 1259418)
- CONDITIONS: T. gondii ME49Luc in IFN-y HeLa, stronger effect = lower value, -100% = high-dose IFN-γ control wells; at 19.5 µM unless noted
Out of some 3,400 compounds screened, about 840 (25%) were called active. About 11% were inconclusive and are not listed. These entries were drawn from the full list. Entries with a potency or affinity are not part of this list.

{"COMPOUND": "Clc1ccc(-c2nc(N3CCc4ccccc43)c3ccccc3n2)cc1", "TEST_RESULT": "-11.3% (inactive)"}
{"COMPOUND": "Cc1ccc(-n2ncc3c(NCC4CCCO4)ncnc32)c(C)c1 (centres undefined)", "TEST_RESULT": "9.91% [at 0.16 µM] (inactive)"}
{"COMPOUND": "Cc1nc(CCNC(=O)C2CCN(C(=O)c3ccccc3Cl)CC2)cs1", "TEST_RESULT": "-5.21% [at 1.35 µM] (inactive)"}

Any idea what its max activity is? The compound is CC(C)NC(=O)N1CC(=O)N2[C@H](CO)[C@H](c3ccc(/C=C/c4ccccc4)cc3)[C@@H]2C1 15.1% (inactive)

Any idea what its max activity is? The compound is Cc1ccc(-c2nc(Cn3nnc(-c4nc(-c5cccc(C)c5)no4)c3C)c(C)o2)cc1 -13% [at 5 µM] (inactive)

Any idea what its max activity is? The compound is O=C(Nc1ccc(-c2nc(-c3ccccc3)co2)cc1)Nc1ccc(F)c(Cl)c1 15.9% (inactive)

Any idea what its max activity is? The compound is CCOC(=O)CC(=O)Nc1ccc(-c2nc(-c3cc(C)ccc3C)co2)cc1 -6.71% [at 0.35 µM] (inactive)

Any idea what its max activity is? The compound is CCOc1ccccc1C(=O)N1CCC(C(=O)NCCc2csc(-c3ccccc3)n2)CC1 -11.4% [at 5 µM] (inactive)

Any idea what its max activity is? The compound is Cc1nc(CCNC(=O)[C@H]2CCCN2S(=O)(=O)c2ccccc2C)cs1 12.4% [at 10 µM] (inactive)

Any idea what its max activity is? The compound is CCSc1ccc2c(c1)N(CCCN1CCN(C)CC1)c1ccccc1S2 26.9% (inactive)
